- target-of-assay: GST-Rok-C97-191 (Bacillus subtilis subsp. subtilis str. …, UniProt O34857 97-191)
- Sequence: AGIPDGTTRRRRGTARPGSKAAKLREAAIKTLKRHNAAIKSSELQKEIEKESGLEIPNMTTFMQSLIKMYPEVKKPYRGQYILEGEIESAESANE
- method-summary: protein binding microarray; Rok is a gene silencer of Bacillus subtilis; high values mean tight binding
- test-conditions: protein: recombinant; tags: GST (pTH5325, pDEST15-Magic modified); dsDNA, one strand shown
Over roughly 33,000 sequences, “e-score” has its median near -0.038; the highest 2% begin near 0.33. This is one part of a sample in which the highest values are shown more often than they occur.
Tag: 1 if measured binding signal is not below 0.2 E-score, 0 if it is.

Observe how each entry below is paired with its result.
> print(dat)
   residue.string  cat
1        CCTTATAA    0
2        ATATTGTA    1
3        ACTGGCAT    0
4        ATGTATAC    1
5        CTACAGTA    1

Test whether the sequence ATGTATAA records binding signal of 0.2 E-score or higher. 1

Is binding signal for ATCTAACA at or above 0.2 E-score? 0

Please indicate if the recorded binding signal for GTATTGTA meets or exceeds 0.2 E-score. 1

Form field: binding signal at least 0.2 E-score? Entry: ATATTGTG 1

Given the entry CAACAGTA , answer whether its binding signal meets or surpasses 0.2 E-score. 1

In plain terms: is recorded binding signal at least 0.2 E-score for ATGCAAGC ? 0

# credit: paper PMC6212790
